- System Tested: CD33 (Sino Biological, Cat #12238-H08H) (UniProt P20138 18-259)
- Sequence (P20138 18-259 limits assumed): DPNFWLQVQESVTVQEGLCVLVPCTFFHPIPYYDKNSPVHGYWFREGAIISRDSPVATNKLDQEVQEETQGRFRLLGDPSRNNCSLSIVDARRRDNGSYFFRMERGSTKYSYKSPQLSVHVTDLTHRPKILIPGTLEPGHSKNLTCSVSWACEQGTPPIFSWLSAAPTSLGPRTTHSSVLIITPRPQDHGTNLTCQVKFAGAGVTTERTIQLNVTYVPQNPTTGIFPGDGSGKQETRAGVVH
- Protocol Description: BLI, IgG captured on anti-human Fc sensor, 50 nM CD33, pH 7.4 vs pH 5.4

Binder	binding result
MYT1166 (antibody, V domains shown, IgG; gemtuzumab VH combination #5 (S32H+Y52H)) VH: EVQLVQSGAEVKKPGSSVKVSCKASGYTITDHNIHWVRQAPGQSLEWIGYIHPYNGGTDYNQKFKNRATLTVDNPTNTAYMELSSLRSEDTDFYYCVNGNPWLAYWGQGTLVTVSS VL: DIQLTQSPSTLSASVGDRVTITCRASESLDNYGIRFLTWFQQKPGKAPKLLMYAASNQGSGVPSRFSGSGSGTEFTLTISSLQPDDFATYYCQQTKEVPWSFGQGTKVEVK	binds
MYT1347 (antibody, V domains shown, IgG; vadastuximab VH variant #13 (Y52H)) VH: QVQLVQSGAEVKKPGASVKVSCKASGYTFTNYDINWVRQAPGQGLEWIGWIHPGDGSTKYNEKFKAKATLTADTSTSTAYMELRSLRSDDTAVYYCASGYEDAMDYWGQGTTVTVSS VL: DIQMTQSPSSLSASVGDRVTINCKASQDINSYLSWFQQKPGKAPKTLIYRANRLVDGVPSRFSGSGSGQDYTLTISSLQPEDFATYYCLQYDEFPLTFGGGTKVEIK	binds
MYT2618 (antibody, V domains shown, IgG; IMGN779 VL variant #2 (S25H)) VH: QVQLQQPGAEVVKPGASVKMSCKASGYTFTSYYIHWIKQTPGQGLEWVGVIYPGNDDISYNQKFQGKATLTADKSSTTAYMQLSSLTSEDSAVYYCAREVRLRYFDVWGQGTTVTVSS VL: EIVLTQSPGSLAVSPGERVTMSCKHSQSVFFSSSQKNYLAWYQQIPGQSPRLLIYWASTRESGVPDRFTGSGSGTDFTLTISSVQPEDLAIYYCHQYLSSRTFGQGTKLEIK	binds
